biological target: beta-catenin/TCF4 engagement (Homo sapiens, UniProt P35222); construct: expressed in transfected cells; host or cells: HEK293; assay: Nano-BRET target engagement assay (B-cat-Halo & TCF4-Luc in HEK293 cells); format: cell-based; conditions: absolute IC50; read-out: NanoBRET Abs IC50
Value Type: IC50 (µM)
Give bare numbers, in µM.

Molecule	Target System	Unit Spec	IC50
CC(=O)N1CCC[C@]12CC=CCCCC1(CCCC=CCCCOC(=O)N3CC[C@@](C(=O)N[C@@H](Cc4ccccc4Cl)C(=O)N[C@@H](Cc4csc5ccccc45)C(=O)N[C@H](CO)[C@@H](C)O)(C3)NC(=O)[C@H]([C@@H](C)O)NC(=O)[C@H](Cc3ccccc3)NC(=O)[C@H](C)NC(=O)[C@H](C)NC(=O)[C@H](CC(=O)O)NC(=O)[C@H](CC(=O)O)NC1=O)NC(=O)[C@H](CC1CCCCC1)NC(=O)[C@H](CC(=O)O)NC2=O (stereo partly drawn)	beta-catenin/TCF4 engagement (Homo sapiens, UniProt P35222)	µM	16.1
CC(=O)N1CCC[C@]12CC=CCCCCC1(CCCCC=CCCOC(=O)N3CC[C@@](C(=O)N[C@@H](Cc4ccccc4C(F)(F)F)C(=O)N[C@@H](Cc4csc5ccccc45)C(=O)N[C@@H](CCC(N)=O)C(N)=O)(C3)NC(=O)[C@H](CC(C)C)NC(=O)[C@H](Cc3ccccc3)NC(=O)[C@H](C)NC(=O)[C@H](C)NC(=O)[C@H](Cc3cccc(C(=O)O)c3)NC(=O)[C@H](CC(=O)O)NC1=O)NC(=O)[C@H](CC(C)(C)C)NC(=O)[C@H](CC(=O)O)NC2=O (stereo partly drawn)	beta-catenin/TCF4 engagement (Homo sapiens, UniProt P35222)	µM	27.3

API: the following record is the query input.
The reported IC50 of the molecule CC[C@H](C)[C@@H]1NC(=O)[C@H](CC(=O)O)NC(=O)[C@]2(CC=CCCCC3(CCCC=CCCCCCC[C@@](C)(C(=O)N[C@@H](Cc4ccsc4)C(=O)N[C@@H](Cc4csc5ccccc45)C(=O)N[C@@H](CCC(N)=O)C(N)=O)NC(=O)[C@H](CC(N)=O)NC(=O)[C@H](Cc4ccccc4)NC(=O)[C@H](C)NC(=O)[C@H](C)NC(=O)[C@H](CCC(=O)O)NC(=O)[C@H](CC(=O)O)NC3=O)NC1=O)CCCN2C(C)=O (stereo partly drawn) was 15.4

* * *

Provide the recorded log10 of IC50 for the entries that follow.
molecular target: full-length beta-Catenin (Uniprot ID P35222) (Homo sapiens, UniProt P35222); construct: 10 nM full-length beta-Catenin (Uniprot ID P35222); experiment: Fluorescence polarization IC50 (beta-catenin / 5FAM-TCF4 10-53 competition); type: binding; settings: read-out: FP EC50
Sequence (P35222 whole entry): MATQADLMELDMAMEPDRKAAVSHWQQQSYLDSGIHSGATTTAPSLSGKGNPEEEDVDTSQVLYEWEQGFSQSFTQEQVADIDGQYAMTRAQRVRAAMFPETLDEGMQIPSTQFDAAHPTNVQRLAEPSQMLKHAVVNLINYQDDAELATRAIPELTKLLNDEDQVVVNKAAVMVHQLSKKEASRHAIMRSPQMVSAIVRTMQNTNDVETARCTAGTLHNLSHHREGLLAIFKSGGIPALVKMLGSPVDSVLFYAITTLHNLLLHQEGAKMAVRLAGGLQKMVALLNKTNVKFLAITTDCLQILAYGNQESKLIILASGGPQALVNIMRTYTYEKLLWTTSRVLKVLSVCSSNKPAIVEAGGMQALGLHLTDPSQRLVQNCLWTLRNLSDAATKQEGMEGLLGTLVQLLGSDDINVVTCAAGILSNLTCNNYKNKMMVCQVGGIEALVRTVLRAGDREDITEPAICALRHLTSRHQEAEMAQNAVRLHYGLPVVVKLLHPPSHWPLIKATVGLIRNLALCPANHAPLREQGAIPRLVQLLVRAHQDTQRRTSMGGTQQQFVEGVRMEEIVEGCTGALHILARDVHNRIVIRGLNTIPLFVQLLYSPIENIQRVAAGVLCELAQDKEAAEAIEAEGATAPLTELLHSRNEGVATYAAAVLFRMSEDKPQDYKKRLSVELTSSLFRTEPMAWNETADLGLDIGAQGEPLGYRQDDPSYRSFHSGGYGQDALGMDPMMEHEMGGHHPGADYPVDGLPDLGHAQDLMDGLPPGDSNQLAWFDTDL
The base-10 logarithm of IC50, taken with IC50 in µM, is what appears here.

Worked examples follow.
Compound	log10 of IC50
COc1ccccc1C[C@H](NC(=O)[C@]1(C)CCCCCCC=CCCCC2(CCCC=CC[C@]3(CCCN3C(C)=O)C(=O)N[C@@H](CC(=O)O)C(=O)N[C@@H](C)C(=O)N2)C(=O)N[C@@H](CC(=O)O)C(=O)N[C@@H](CCC(=O)O)C(=O)N[C@@H](C)C(=O)N[C@@H](C)C(=O)N[C@@H](Cc2ccccc2)C(=O)N[C@@H](CC(N)=O)C(=O)N1)C(=O)N[C@@H](Cc1csc2ccccc12)C(=O)N[C@@H](Cc1c[nH]cn1)C(N)=O (some centres unmarked) [I-511]	-1.40
CC[C@H](C)[C@@H]1NC(=O)[C@H](CC(=O)O)NC(=O)[C@]2(CC=CCCCC3(CCCC=CCCCCCC[C@@](C)(C(=O)N[C@@H](Cc4ccccc4)C(=O)N[C@@H](Cc4csc5ccccc45)C(=O)N[C@@H](Cc4c[nH]cn4)C(N)=O)NC(=O)[C@H](CC(N)=O)NC(=O)[C@H](Cc4ccccc4)NC(=O)[C@H](C)NC(=O)[C@H](C)NC(=O)[C@H](CC(=O)O)NC(=O)[C@H](CC(=O)O)NC3=O)NC1=O)CCCN2C(C)=O (some centres unmarked) [I-469]	-1.57
CCC[C@@H]1NC(=O)[C@H](CC(=O)O)NC(=O)[C@]2(CC=CCCCC3(CCCC=CCCCCCC[C@@](C)(C(=O)N[C@@H](Cc4ccccc4)C(=O)N[C@@H](Cc4csc5ccccc45)C(=O)N[C@@H](CCC(N)=O)C(N)=O)NC(=O)[C@H](CCC(N)=O)NC(=O)[C@H](Cc4ccccc4)NC(=O)[C@H](C)NC(=O)[C@H](C)NC(=O)[C@H](CCC(=O)O)NC(=O)[C@H](CC(=O)O)NC3=O)NC1=O)CCCN2C(C)=O (some centres unmarked) [I-523]	-1.36
CC(=O)N1CCC[C@]12CC=CCCCC1(CCCC=CCCCCCC[C@@](C)(C(=O)N[C@@H](Cc3ccsc3)C(=O)N[C@@H](Cc3csc4ccccc34)C(=O)N[C@@H](CCC(N)=O)C(N)=O)NC(=O)[C@H](CC(N)=O)NC(=O)[C@H](Cc3ccccc3)NC(=O)[C@H](C)NC(=O)[C@H](C)NC(=O)[C@H](CCC(=O)O)NC(=O)[C@H](CC(=O)O)NC1=O)NC(=O)[C@H](C)NC(=O)[C@H](CC(=O)O)NC2=O (some centres unmarked) [I-518]	-0.84

API: the following record is the query input.
The reported log10 of IC50 of the compound CC[C@H](C)[C@H](NC(=O)[C@H](Cc1c[nH]cn1)NC(=O)[C@H](Cc1csc2ccccc12)NC(=O)[C@H](Cc1ccccc1)NC(=O)[C@]1(C)CCCCCCC=CCCCC2(CCCC=CC[C@]3(CCCN3C(C)=O)C(=O)N[C@@H](CC(=O)O)C(=O)N[C@@H](CC(C)C)C(=O)N2)C(=O)N[C@@H](CC(=O)O)C(=O)N[C@@H](CCC(=O)O)C(=O)N[C@@H](C)C(=O)N[C@@H](C)C(=O)N[C@@H](Cc2ccccc2)C(=O)N[C@@H](CC(N)=O)C(=O)N1)C(N)=O (some centres unmarked) [I-740] was -0.42

* * *

molecular target: beta-catenin/TCF4 engagement (Homo sapiens, UniProt P35222); construct: expressed in transfected cells; host or cells: HEK293; test: Nano-BRET target engagement assay (B-cat-Halo & TCF4-Luc in HEK293 cells); assay type: cell-based; details: HEK293, @ 10 uM; read-out: NanoBRET % inh @ 10 uM
Value Type: inhibition at 10 µM (%)
Give bare numbers, in %.

Compound	Target System	Unit Spec	inhibition at 10 µM
CC(=O)N1CCC[C@]12CC=CCCCC1(CCCC=CCCCCCC[C@@](C)(C(=O)N[C@@H](Cc3ccccc3)C(=O)N[C@@H](Cc3csc4ccccc34)C(=O)N[C@@H](CCC(N)=O)C(N)=O)NC(=O)[C@H](CC(N)=O)NC(=O)[C@H](Cc3ccccc3)NC(=O)[C@H](C)NC(=O)[C@H](C)NC(=O)[C@H](CC(=O)O)NC(=O)[C@H](CC(=O)O)NC1=O)NC(=O)[C@H](C(C)C)NC(=O)[C@H](CC(=O)O)NC2=O (stereo partly shown)	beta-catenin/TCF4 engagement (Homo sapiens, UniProt P35222)	%	8.9
CC(=O)N1CCC[C@]12CC=CCCCC1(CCCC=CCCCOC(=O)N3CC[C@@](C(=O)N[C@@H](Cc4ccsc4)C(=O)N[C@@H](Cc4csc5ccccc45)C(=O)N[C@@H](CCC(N)=O)C(N)=O)(C3)NC(=O)[C@H](CC(N)=O)NC(=O)[C@H](CC(=O)O)NC(=O)[C@H](C)NC(=O)[C@H](C)NC(=O)[C@H](CC(=O)O)NC(=O)[C@H](CC(=O)O)NC1=O)NC(=O)[C@H](CC(C)(C)C)NC(=O)[C@H](Cc1ccccc1)NC2=O (stereo partly shown)	beta-catenin/TCF4 engagement (Homo sapiens, UniProt P35222)	%	4.3
CC(=O)N1CCC[C@]12CC=CCCCC1(CCCC=CCCCCOC(=O)N3CC[C@@](C(=O)N[C@@H](Cc4ccsc4)C(=O)N[C@@H](Cc4csc5ccccc45)C(=O)N[C@@H](Cc4c[nH]cn4)C(N)=O)(C3)NC(=O)[C@H](CC(N)=O)NC(=O)[C@H](Cc3ccccc3)NC(=O)[C@H](C)NC(=O)[C@H](C)NC(=O)[C@H](CC(=O)O)NC(=O)[C@H](CC(=O)O)NC1=O)NC(=O)[C@H](CC(C)(C)C)NC(=O)[C@H](CC(=O)O)NC2=O (stereo partly shown)	beta-catenin/TCF4 engagement (Homo sapiens, UniProt P35222)	%	5.1

The reported inhibition at 10 µM of the compound CC[C@H](C)[C@@H]1NC(=O)[C@H](CC(=O)O)NC(=O)[C@]2(CC=CCCCC3(CCCC=CCCCCCC[C@@](C)(C(=O)N[C@@H](Cc4ccccc4)C(=O)N[C@@H](Cc4csc5ccccc45)C(=O)N[C@@H](Cc4c[nH]cn4)C(N)=O)NC(=O)[C@H](CC(N)=O)NC(=O)[C@H](Cc4ccccc4)NC(=O)[C@H](C)NC(=O)[C@H](C)NC(=O)[C@H](CC(=O)O)NC(=O)[C@H](CC(=O)O)NC3=O)NC1=O)CCCN2C(C)=O (stereo partly shown) was 14.1
